target: UniProt P08069; assay: Inhibition of IGF1R
pIC50: −log10 of the molar value.
attribute-measured: pIC50

smiles-entry	pIC50
CN1CCN([C@H]2CC[C@@H](n3nc(-c4ccc(Nc5nc6ccccc6o5)cc4)c4c(N)ncnc43)CC2)CC1	6.09

1 = CN1CCN([C@H]2CC[C@@H](n3nc(-c4ccc(Nc5nc6cc(Cl)ccc6o5)c(F)c4)c4c(N)ncnc43)CC2)CC1
2 = CN1CCN([C@H]2CC[C@H](n3nc(-c4ccc(Nc5nc6cccc(Cl)c6o5)c(Cl)c4)c4c(N)ncnc43)CC2)CC1
I'm curious, which of these has a smaller pIC50 number: 1 or 2 ? Mark your answer with the label of the selected entry.
1
(1: 6.38, 2: 7.31)

====

test: Half life in iv dosed rat; type: ADME, organism-based; settings: in vivo
attribute-measured: half-life (h)
Supply the numeric figure in h, leaving out any unit text.

Please report the recorded half-life for CN1CCN([C@H]2CC[C@H](n3nc(-c4ccc(Nc5nc6cccc(Cl)c6o5)cc4)c4c(N)ncnc43)CC2)CC1 .
8.4

====

assay: Oral bioavailability in C57BL/6 mouse at 10 mg/kg; format: ADME, organism-based; conditions: in vivo
attribute-measured: bioavailability (%)
Value expressed in %; do not type the unit.

Name the reported bioavailability value associated with the compound CN1CCN([C@H]2CC[C@H](n3nc(-c4ccc(Nc5nc6cccc(Cl)c6o5)cc4)c4c(N)ncnc43)CC2)CC1
20

====

target: Insulin-like growth factor 1 receptor (Homo sapiens); test: Inhibition of IGF1R
Sequence (P08069 31-736 limits assumed): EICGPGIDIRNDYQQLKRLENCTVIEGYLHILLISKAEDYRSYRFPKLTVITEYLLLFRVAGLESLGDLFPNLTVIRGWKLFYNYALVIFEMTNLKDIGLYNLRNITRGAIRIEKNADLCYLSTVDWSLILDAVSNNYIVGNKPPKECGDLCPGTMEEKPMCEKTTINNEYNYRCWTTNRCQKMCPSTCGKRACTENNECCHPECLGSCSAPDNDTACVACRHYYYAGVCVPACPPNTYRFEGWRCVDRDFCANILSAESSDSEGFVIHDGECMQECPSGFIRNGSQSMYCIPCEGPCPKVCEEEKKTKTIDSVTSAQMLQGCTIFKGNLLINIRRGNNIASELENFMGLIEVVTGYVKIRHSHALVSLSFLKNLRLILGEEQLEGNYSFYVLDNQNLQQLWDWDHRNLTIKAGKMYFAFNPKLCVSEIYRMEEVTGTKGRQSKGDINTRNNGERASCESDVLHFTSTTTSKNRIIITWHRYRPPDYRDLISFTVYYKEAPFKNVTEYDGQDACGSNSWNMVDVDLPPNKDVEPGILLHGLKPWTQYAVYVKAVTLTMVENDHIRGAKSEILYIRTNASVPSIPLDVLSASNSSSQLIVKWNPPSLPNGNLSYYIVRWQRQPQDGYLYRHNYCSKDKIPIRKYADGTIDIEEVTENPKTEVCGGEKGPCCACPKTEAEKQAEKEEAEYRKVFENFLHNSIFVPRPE
Sequence (P08069 741-1367 limits assumed): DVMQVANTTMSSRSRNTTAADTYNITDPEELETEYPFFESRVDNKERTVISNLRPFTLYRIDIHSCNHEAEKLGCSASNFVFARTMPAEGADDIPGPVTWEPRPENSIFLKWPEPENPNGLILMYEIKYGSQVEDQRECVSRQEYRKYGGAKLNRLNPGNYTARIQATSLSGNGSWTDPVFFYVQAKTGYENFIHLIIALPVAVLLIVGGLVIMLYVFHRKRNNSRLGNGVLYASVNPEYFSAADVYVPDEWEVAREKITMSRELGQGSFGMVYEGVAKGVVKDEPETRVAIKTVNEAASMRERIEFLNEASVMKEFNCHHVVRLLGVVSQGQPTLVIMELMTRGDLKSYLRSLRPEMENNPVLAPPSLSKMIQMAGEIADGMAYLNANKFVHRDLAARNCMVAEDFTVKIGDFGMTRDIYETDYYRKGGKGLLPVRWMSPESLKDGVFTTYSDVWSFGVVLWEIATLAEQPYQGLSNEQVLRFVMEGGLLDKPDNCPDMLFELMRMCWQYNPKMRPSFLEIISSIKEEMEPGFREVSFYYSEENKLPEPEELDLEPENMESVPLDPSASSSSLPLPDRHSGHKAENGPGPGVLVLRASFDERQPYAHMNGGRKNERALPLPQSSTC
pIC50: −log10 of the molar value.
attribute-measured: pIC50

Consider the worked cases shown below.
smiles-entry	pIC50
Cc1cc(-c2nn([C@H]3CC[C@H](N4CCN(C)CC4)CC3)c3ncnc(N)c23)ccc1Nc1nc2cccc(Cl)c2o1	6.71
Cc1cc(Br)c2oc(Nc3ccc(-c4cn([C@H]5CC[C@@H](N6CCN(C)CC6)CC5)c5ncnc(N)c45)cc3F)nc2c1	7.03
CC(C)N1CCN([C@H]2CC[C@@H](n3nc(-c4ccc(Nc5nc6cccc(Cl)c6o5)cc4)c4c(N)ncnc43)CC2)CC1	6.76

A = CN1CCN([C@H]2CC[C@@H](n3nc(-c4ccc(Nc5nc6cccc(Cl)c6o5)cc4)c4c(N)ncnc43)CC2)CC1
B = Cc1cc(C)c2oc(Nc3ccc(-c4nn([C@H]5CC[C@@H](N6CCN(C)CC6)CC5)c5ncnc(N)c45)cc3F)nc2c1
C = COCCCN1CCN([C@H]2CC[C@@H](n3nc(-c4ccc(Nc5nc6cccc(Cl)c6o5)cc4)c4c(N)ncnc43)CC2)CC1
Please list these in order of increasing pIC50. Thank you! Order the labels as requested and list them.
C, B, A
(C: 6.37, B: 6.80, A: 7.11)

====

experiment: Tmax in po dosed C57BL/6 mouse; type: ADME, organism-based; conditions: in vivo
attribute-measured: Tmax (h)
Only the number, expressed in h, is required.

For CN1CCN([C@H]2CC[C@H](n3nc(-c4ccc(Nc5nc6cccc(Cl)c6o5)cc4)c4c(N)ncnc43)CC2)CC1 , what is its reported Tmax?
3

====

target: Epidermal growth factor receptor (Homo sapiens, UniProt P00533); test: Inhibition of EGFR phosphorylation in human MIAPaCa cells by ELISA
Sequence (P00533 whole entry): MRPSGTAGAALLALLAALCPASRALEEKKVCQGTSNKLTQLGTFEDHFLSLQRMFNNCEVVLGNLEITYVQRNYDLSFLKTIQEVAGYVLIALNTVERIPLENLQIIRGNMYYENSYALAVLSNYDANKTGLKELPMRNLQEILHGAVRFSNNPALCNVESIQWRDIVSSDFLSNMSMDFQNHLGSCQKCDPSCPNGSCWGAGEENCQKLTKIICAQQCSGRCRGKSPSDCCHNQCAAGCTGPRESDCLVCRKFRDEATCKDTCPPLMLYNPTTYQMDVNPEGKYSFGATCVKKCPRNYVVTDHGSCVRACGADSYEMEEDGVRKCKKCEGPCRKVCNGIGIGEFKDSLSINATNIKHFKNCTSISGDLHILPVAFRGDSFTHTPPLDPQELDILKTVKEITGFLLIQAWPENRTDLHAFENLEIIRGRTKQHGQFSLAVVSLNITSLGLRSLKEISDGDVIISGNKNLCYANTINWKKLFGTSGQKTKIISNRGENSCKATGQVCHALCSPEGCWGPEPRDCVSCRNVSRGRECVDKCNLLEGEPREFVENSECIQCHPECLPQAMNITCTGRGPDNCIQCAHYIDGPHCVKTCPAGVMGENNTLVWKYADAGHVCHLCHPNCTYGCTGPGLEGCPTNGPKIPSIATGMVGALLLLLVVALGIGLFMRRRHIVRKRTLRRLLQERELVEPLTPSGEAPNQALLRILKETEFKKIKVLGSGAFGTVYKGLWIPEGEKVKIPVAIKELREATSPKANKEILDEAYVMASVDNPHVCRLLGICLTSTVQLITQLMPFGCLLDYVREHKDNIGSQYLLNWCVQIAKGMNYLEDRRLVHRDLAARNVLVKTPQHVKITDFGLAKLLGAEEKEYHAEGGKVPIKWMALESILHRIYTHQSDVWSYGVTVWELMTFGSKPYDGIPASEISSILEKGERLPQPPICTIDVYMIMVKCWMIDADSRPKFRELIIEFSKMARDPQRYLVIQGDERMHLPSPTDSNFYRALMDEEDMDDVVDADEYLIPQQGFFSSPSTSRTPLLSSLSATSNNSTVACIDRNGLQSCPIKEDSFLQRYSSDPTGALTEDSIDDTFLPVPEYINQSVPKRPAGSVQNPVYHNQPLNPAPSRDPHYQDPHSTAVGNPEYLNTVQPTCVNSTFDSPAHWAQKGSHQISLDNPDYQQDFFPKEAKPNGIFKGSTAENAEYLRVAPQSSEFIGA
attribute-measured: IC50 (µM)

smiles-entry	study-target	unit-text	experimental-result
CN1CCN([C@H]2CC[C@H](n3nc(-c4ccc(Nc5nc6cccc(Cl)c6o5)c(F)c4)c4c(N)ncnc43)CC2)CC1	Epidermal growth factor receptor (Homo sapiens, UniProt P00533)	µM	2.88
CN1CCN([C@H]2CC[C@H](n3nc(-c4ccc(Nc5nc6cccc(Cl)c6o5)cc4)c4c(N)ncnc43)CC2)CC1	Epidermal growth factor receptor (Homo sapiens, UniProt P00533)	µM	2.3

====

biological target: Insulin-like growth factor 1 receptor (Homo sapiens); assay: Inhibition of IGF1R phosphorylation in human MIAPaCa cells by ELISA; type: cell-based
attribute-measured: IC50 (nM)

smiles-entry	IC50, nM
CN1CCN([C@H]2CC[C@H](n3nc(-c4ccc(Nc5nc6cccc(Cl)c6o5)c(F)c4)c4c(N)ncnc43)CC2)CC1	87

A = CN1CCN([C@H]2C[C@@H](c3nc(-c4ccc5ccc(-c6ccccc6)nc5c4)c4c(N)nccn43)C2)CC1
B = CN1CCN([C@H]2CC[C@H](n3nc(-c4ccc(Nc5nc6cccc(Cl)c6o5)cc4)c4c(N)ncnc43)CC2)CC1
Hey, which is lower on measured IC50, A or B ? To answer, give the label that identifies your chosen option.
A
(A: 65 nM, B: 207 nM)

====

biological target: Epidermal growth factor receptor (Homo sapiens, UniProt P04626+P00533+Q15303+P21860); assay: Inhibition of EGFR L858 mutant; assay type: protein assay
attribute-measured: IC50 (µM)

Some entries whose results are on file:
smiles-entry	IC50, µM
Cc1cc(Br)c2oc(Nc3ccc(-c4cn([C@H]5CC[C@@H](N6CCN(C)CC6)CC5)c5ncnc(N)c45)cc3F)nc2c1	1.45
Cc1cc(C)c2oc(Nc3ccc(-c4nn([C@H]5CC[C@@H](N6CCN(C)CC6)CC5)c5ncnc(N)c45)cc3F)nc2c1	2.27
CN1CCN([C@H]2CC[C@H](n3nc(-c4ccc(Nc5nc6cccc(Cl)c6o5)c(Cl)c4)c4c(N)ncnc43)CC2)CC1	0.063
CN1CCN([C@H]2CC[C@@H](n3nc(-c4ccc(Nc5nc6cc(Cl)ccc6o5)c(F)c4)c4c(N)ncnc43)CC2)CC1	1.47
CN1CCN([C@H]2CC[C@@H](n3nc(-c4ccc(Nc5nc6cccc(Cl)c6o5)cc4)c4c(N)ncnc43)CC2)CC1	0.393

a = COCCCN1CCC(N2CCC(n3nc(-c4ccc(Nc5nc6cccc(Cl)c6o5)cc4)c4c(N)ncnc43)CC2)CC1
b = CN1CCN([C@H]2CC[C@@H](n3nc(-c4ccc(Nc5nc6cc(Cl)cc(Cl)c6o5)cc4)c4c(N)ncnc43)CC2)CC1
# returns the entry with the larger IC50; inputs a and b Reply briefly: the label of your chosen item.
b

A = CN(C)C(=O)CN1CCN([C@H]2CC[C@H](n3nc(-c4ccc(Nc5nc6cccc(Cl)c6o5)cc4)c4c(N)ncnc43)CC2)CC1
B = COCCCN1CCN([C@H]2CC[C@@H](n3nc(-c4ccc(Nc5nc6cccc(Cl)c6o5)cc4)c4c(N)ncnc43)CC2)CC1
Of A and B , which shows the smaller IC50 value? Returns: label corresponding to the selected item.
B
(B: 0.874 µM, A: 1.84 µM)

====

test: Half life in iv dosed C57BL/6 mouse; format: ADME, organism-based; settings: in vivo
attribute-measured: half-life (h)
Answer with a number only, understood to be in h.

What does the record list as half-life for CN1CCN([C@H]2CC[C@H](n3nc(-c4ccc(Nc5nc6cccc(Cl)c6o5)cc4)c4c(N)ncnc43)CC2)CC1 ?
2.4

====

biological target: Receptor tyrosine-protein kinase erbB-2 (Homo sapiens, UniProt P04626); assay: Inhibition of ErbB2
Sequence (P04626 whole entry): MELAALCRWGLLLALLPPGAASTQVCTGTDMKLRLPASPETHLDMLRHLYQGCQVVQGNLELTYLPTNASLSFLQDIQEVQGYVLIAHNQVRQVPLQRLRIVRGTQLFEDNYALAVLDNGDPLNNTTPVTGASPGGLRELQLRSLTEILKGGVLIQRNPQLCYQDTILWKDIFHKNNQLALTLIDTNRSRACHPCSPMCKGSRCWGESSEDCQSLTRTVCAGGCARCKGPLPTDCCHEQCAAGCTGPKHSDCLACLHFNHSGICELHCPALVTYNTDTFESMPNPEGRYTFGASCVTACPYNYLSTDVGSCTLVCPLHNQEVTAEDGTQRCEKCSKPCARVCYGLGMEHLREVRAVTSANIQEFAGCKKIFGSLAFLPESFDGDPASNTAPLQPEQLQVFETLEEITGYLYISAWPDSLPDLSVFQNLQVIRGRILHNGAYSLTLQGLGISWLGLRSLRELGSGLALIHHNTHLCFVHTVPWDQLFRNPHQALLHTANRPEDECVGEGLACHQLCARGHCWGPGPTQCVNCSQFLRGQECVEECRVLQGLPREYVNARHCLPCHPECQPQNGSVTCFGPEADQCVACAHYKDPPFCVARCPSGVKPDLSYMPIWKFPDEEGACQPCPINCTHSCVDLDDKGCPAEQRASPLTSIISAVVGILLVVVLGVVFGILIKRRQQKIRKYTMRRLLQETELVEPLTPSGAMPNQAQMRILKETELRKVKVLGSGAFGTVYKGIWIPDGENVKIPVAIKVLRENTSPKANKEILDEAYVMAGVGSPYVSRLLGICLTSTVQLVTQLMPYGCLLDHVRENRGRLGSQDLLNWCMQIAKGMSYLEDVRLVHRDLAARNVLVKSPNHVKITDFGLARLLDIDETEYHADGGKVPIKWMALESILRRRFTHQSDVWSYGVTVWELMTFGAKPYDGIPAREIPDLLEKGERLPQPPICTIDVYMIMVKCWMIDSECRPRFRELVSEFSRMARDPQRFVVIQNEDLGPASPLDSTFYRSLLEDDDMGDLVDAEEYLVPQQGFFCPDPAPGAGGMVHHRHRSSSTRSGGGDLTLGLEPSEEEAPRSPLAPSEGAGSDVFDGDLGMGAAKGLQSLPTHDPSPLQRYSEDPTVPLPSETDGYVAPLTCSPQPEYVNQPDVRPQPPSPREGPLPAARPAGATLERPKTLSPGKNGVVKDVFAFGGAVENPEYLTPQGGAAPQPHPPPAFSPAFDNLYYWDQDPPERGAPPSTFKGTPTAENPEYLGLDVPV
pIC50: −log10 of the molar value.
attribute-measured: pIC50

Known pIC50 results, listed for orientation:
smiles-entry	study-target	pIC50
Nc1ncnc2c1c(-c1ccc(Nc3nc4cccc(Cl)c4o3)cc1)nn2[C@H]1CC[C@H](N2CCOCC2)CC1	Receptor tyrosine-protein kinase erbB-2 (Homo sapiens, UniProt P04626)	6.48
CC(C)N1CCN([C@H]2CC[C@@H](n3nc(-c4ccc(Nc5nc6cccc(Cl)c6o5)cc4)c4c(N)ncnc43)CC2)CC1	Receptor tyrosine-protein kinase erbB-2 (Homo sapiens, UniProt P04626)	7.21
Cc1cc(C)c2oc(Nc3ccc(-c4nn([C@H]5CC[C@@H](N6CCN(C)CC6)CC5)c5ncnc(N)c45)cc3F)nc2c1	Receptor tyrosine-protein kinase erbB-2 (Homo sapiens, UniProt P04626)	5.39
COCCCN1CCC(N2CCC(n3nc(-c4ccc(Nc5nc6cccc(Cl)c6o5)cc4)c4c(N)ncnc43)CC2)CC1	Receptor tyrosine-protein kinase erbB-2 (Homo sapiens, UniProt P04626)	7.86

P = Cc1cc(Cl)c2oc(Nc3ccc(-c4nn([C@H]5CC[C@@H](N6CCN(C)CC6)CC5)c5ncnc(N)c45)cc3)nc2c1
Q = CN1CCC(N2CCC(n3nc(-c4ccc(Nc5nc6cccc(Cl)c6o5)cc4)c4c(N)ncnc43)CC2)CC1
R = Cc1cc(Nc2nc3cccc(Cl)c3o2)ccc1-c1nn([C@H]2CC[C@H](N3CCN(C)CC3)CC2)c2ncnc(N)c12
Number of compounds to sort: 3. Sort criterion: pIC50, ascending. Your answer should be the labels, listed in the requested order.
P, R, Q
(P: 5.28, R: 6.32, Q: 7.84)

====

molecular target: Insulin-like growth factor 1 receptor (Homo sapiens); assay: Inhibition of IGF1R
pIC50: −log10 of the molar value.
attribute-measured: pIC50

Below: 3 compounds and their reported pIC50.
smiles-entry	study-target	pIC50
Nc1ncnc2c1c(-c1ccc(Nc3nc4cccc(Cl)c4o3)cc1)nn2[C@H]1CC[C@H](N2CCOCC2)CC1	Insulin-like growth factor 1 receptor (Homo sapiens)	7.38
COCCCN1CCN([C@H]2CC[C@H](n3nc(-c4ccc(Nc5nc6cccc(Cl)c6o5)cc4)c4c(N)ncnc43)CC2)CC1	Insulin-like growth factor 1 receptor (Homo sapiens)	7.14
CN1CCN([C@H]2CC[C@@H](n3nc(-c4ccc(Nc5nc6cccc(Cl)c6o5)c(F)c4)c4c(N)ncnc43)CC2)CC1	Insulin-like growth factor 1 receptor (Homo sapiens)	7.14

1 = CN1CCC(N2CCC(n3nc(-c4ccc(Nc5nc6cccc(Cl)c6o5)cc4)c4c(N)ncnc43)CC2)CC1
2 = CN1CCN([C@H]2CC[C@H](n3nc(-c4ccc(Nc5nc6cccc(Cl)c6o5)cc4Cl)c4c(N)ncnc43)CC2)CC1
Response body: label of entry with the larger pIC50; valid values 1 , 2 . Write down the label attached to your selection.
2
(2: 8.39, 1: 6.97)
